# Study system: T1, human CD30 (commercial), conjugated to digoxigenin (human) (UniProt P28908)
# T1 sequence (conjugated to digoxigenin (DIG), looked up): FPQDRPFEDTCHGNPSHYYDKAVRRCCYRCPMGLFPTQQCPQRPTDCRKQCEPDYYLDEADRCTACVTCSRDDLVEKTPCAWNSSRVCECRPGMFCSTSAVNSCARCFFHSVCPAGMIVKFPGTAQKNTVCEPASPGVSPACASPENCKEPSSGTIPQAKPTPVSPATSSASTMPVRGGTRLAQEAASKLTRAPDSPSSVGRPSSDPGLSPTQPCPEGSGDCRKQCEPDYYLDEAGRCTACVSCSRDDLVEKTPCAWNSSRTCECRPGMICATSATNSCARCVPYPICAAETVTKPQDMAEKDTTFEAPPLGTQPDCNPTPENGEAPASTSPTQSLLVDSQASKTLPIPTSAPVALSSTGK
# Procedure text: AlphaScreen competition with biotin-WT AC10
Give Fold IC50 relative to WT for every item shown.
Respond numerically; units are fold and should not be typed.

Ask: Fold IC50 relative to WT lookup needed for AC10 H1L2 (H1 AC10 VH, L2 AC10 VL) (antibody, from a related filing, IgG1, V domains shown) VH: QIQLVQSGPEVKKPGASVKVSCKASGYTFTDYYITWVRQAPGQGLEWMGWIYPGSGNTKYNEKFQGRVTITVDTSASTAYMELSSLRSEDTAVYFCANYGNYWFAYWGQGTLVTVSS VL: DIVLTQSPSSLSASVGDRVTITCRASQSVDFDGDSYMNWYQQKPGQPPKVLIYAASNLESGIPARFSGSGSGTDFTLTISSLQPEDFATYYCQQSNEDPWTFGGGTKVEIK , thanks.
Result: 0.07

Ask: Fold IC50 relative to WT lookup needed for AC10 H1L1 (H1 AC10 VH, L1 AC10 VL) (antibody, from a related filing, IgG1, V domains shown) VH: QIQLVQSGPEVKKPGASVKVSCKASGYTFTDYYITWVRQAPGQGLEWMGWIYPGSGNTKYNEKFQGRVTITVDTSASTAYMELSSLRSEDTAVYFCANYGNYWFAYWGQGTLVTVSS VL: DIVLTQSPATLSLSPGERATLSCRASQSVDFDGDSYMNWYQQKPGQPPKVLIYAASNLESGIPARFSGSGSGTDFTLTISSLQPEDFATYYCQQSNEDPWTFGGGTKVEIK , thanks.
Result: 0.11

Ask: Fold IC50 relative to WT lookup needed for AC10 H1L3 (H1 AC10 VH, L3 AC10 VL) (antibody, from a related filing, IgG1, V domains shown) VH: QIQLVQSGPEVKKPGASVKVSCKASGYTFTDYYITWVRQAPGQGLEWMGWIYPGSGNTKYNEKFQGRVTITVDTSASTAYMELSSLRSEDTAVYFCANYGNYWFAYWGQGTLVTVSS VL: DIVLTQSPDSLAVSLGERATINCKASQSVDFDGDSYMNWYQQKPGQPPKVLIYAASNLESGIPARFSGSGSGTDFTLTINSLEAEDAATYYCQQSNEDPWTFGGGTKVEIK , thanks.
Result: 0.18
